- test-target: S1PR2 (Homo sapiens)
- Construct: expressed in transfected cells
- experiment-description: S1PR2 binding assay (competition with radioactively labeled S1P, SpA)
- measurement-setup: membranes from stable cell line over expressing S1PR2, SpA beads; read-out: S1P2 EC50 (nM), S1PR2 binding EC50
measured-property: EC50 (nM)
Answers are plain numbers, in nM.

Reference set, count: 5
[Q] Which EC50 is listed for N#Cc1cc2[nH]c(Cc3nn(CC(=O)N4CCOCC4)c(=O)c4cccc(C5CC5)c34)nc2cc1OCC(F)F [Compound 54] ?
[A] 93.5

[Q] Which EC50 is listed for N#Cc1cc2[nH]c(Cc3nn(CC(=O)N4CC5(CCOCC5)C4)c(=O)c4ccccc34)nc2cc1OCC(F)F [Compound 239] ?
[A] 1740

[Q] Which EC50 is listed for N#Cc1cc2nc(Cn3nc(C(=O)O)c(=O)c4ccccc43)[nH]c2cc1OCC1CC1 [Compound 110] ?
[A] 11.2

[Q] Which EC50 is listed for O=C(O)Cc1nn(Cc2cn3cc(OCC4CC4)c(Cl)cc3n2)c2c(c1=O)CCCC2 [Compound 105] ?
[A] 35.3

[Q] Which EC50 is listed for O=c1c2ccccc2c(Cc2nc3cc(Cl)c(OC(F)(F)F)cc3[nH]2)nn1CC1CNC1 [Compound 61] ?
[A] 581

Need EC50 for each of these molecules.
1. O=c1c2ccccc2c(Cc2nc3cc(Cl)c(OC(F)(F)F)cc3[nH]2)nn1CC1CCCN1 (stereo not shown) [Compound 55]
2. NC(=O)c1ccc2c(=O)n(CC(=O)N3CCOCC3)nc(Cc3nc4cc(OCC(F)F)c(Cl)cc4[nH]3)c2c1 [compound 12]

[A]
4570
582

----------
- test-target: human GPCR sphingosine 1-phosphate receptor 1 (Homo sapiens)
- Construct: host or cells: CHO
- Sequence (P21453 whole entry): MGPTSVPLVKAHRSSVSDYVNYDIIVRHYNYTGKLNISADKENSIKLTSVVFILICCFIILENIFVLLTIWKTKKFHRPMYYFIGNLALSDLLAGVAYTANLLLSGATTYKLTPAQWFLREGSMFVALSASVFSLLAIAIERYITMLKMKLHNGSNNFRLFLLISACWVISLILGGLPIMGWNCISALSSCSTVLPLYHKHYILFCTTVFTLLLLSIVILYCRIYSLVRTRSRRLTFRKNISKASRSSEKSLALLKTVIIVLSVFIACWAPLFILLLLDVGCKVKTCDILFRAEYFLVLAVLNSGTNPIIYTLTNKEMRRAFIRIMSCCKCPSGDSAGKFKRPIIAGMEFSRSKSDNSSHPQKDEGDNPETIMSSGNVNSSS
- experiment-description: S1PR1 selectivity Ca2+ flux assay (antagonist readout)
- Type: cell-based
- measurement-setup: antagonist readout, CHO cells overexpressing human S1PR1 and Gq, S1P at EC80 (6 nM); read-out: S1P1 EC50 (nM), S1P1 antagonist EC50
measured-property: EC50

Reference set, count: 5
[Q] Quick check: EC50 on human GPCR sphingosine 1-phosphate receptor 1 (Homo sapiens), item O=C(O)Cn1nc(Cc2nc3cc(OCC(F)F)c(Cl)cc3[nH]2)c2c(F)ccc(F)c2c1=O ?
[A] ≥ 19800 nM

[Q] Quick check: EC50 on human GPCR sphingosine 1-phosphate receptor 1 (Homo sapiens), item O=C(Cn1cc(Cc2nc3cc(OCC(F)F)c(Cl)cc3[nH]2)c2ccccc2c1=O)N1CCOCC1 ?
[A] ≥ 19800 nM

[Q] Quick check: EC50 on human GPCR sphingosine 1-phosphate receptor 1 (Homo sapiens), item CC(C)(C(=O)O)c1nn(Cc2cn3cc(OCC4CC4)c(Cl)cc3n2)c2ccccc2c1=O ?
[A] ≥ 19800 nM

[Q] Quick check: EC50 on human GPCR sphingosine 1-phosphate receptor 1 (Homo sapiens), item CCOc1cc2cn(Cc3nn(CC(=O)O)c(=O)c4ccccc34)nc2cc1Br ?
[A] ≥ 19900 nM

[Q] Quick check: EC50 on human GPCR sphingosine 1-phosphate receptor 1 (Homo sapiens), item COCCOc1cc2nc(Cc3nn(C4CCNC4)c(=O)c4ccccc34)[nH]c2cc1C#N (stereo not drawn) ?
[A] ≥ 19800 nM

Need EC50 for each of these compounds.
1. CCC(C(=O)O)c1nn(Cc2cn3cc(OCC4CC4)c(Cl)cc3n2)c2ccccc2c1=O (stereo not drawn)
2. O=C(Cc1nn(Cc2nc3cc(OCC4CC4)c(Br)cc3[nH]2)c2ccccc2c1=O)N1C[C@H](O)[C@@H](O)C1
3. CCOc1cc2[nH]c(Cc3nn(CC(=O)N4CCOCC4)c(=O)c4ccccc34)nc2cc1C(F)(F)F
4. O=C(O)Cn1nc(Cn2cc3cc(OCC4CC4)c(Cl)cc3n2)c2ccccc2c1=O
5. O=C(Cn1nc(Cc2nc3cc(Cl)c(OC(F)(F)F)cc3[nH]2)c2c(c1=O)CCCC2)N1CCOCC1
6. CC(F)(F)COc1cc2nc(Cc3nn(CC(=O)N4CCOCC4)c(=O)c4ccccc34)[nH]c2cc1C#N
7. O=C(Cn1nc(Cc2nc3cc(Cl)c(OC(F)(F)F)cc3[nH]2)c2c(c1=O)CCCC2)N[C@H]1CCC[C@@H]1O

[A]
≥ 19800 nM
698 nM
≥ 19800 nM
≥ 19900 nM
≥ 19900 nM
≥ 19800 nM
≥ 19900 nM

----------
- test-target: human GPCR sphingosine 1-phosphate receptor 1 (Homo sapiens)
- Construct: host or cells: CHO
- experiment-description: S1PR1 selectivity Ca2+ flux assay (antagonist readout)
- Format: cell-based
- measurement-setup: antagonist readout, CHO cells overexpressing human S1PR1 and Gq, S1P at EC80 (6 nM); read-out: S1P1 EC50 (nM), S1P1 antagonist EC50
measured-property: EC50

Need EC50 for each of these compounds.
1. N#Cc1cc2[nH]c(Cn3nc(CC(=O)N4C[C@H](O)[C@@H](O)C4)c(=O)c4ccccc43)nc2cc1OCC1CC1
2. O=C(Cn1nc(Cc2nc3cc(OCC(F)F)c(F)cc3[nH]2)c2c(c1=O)CCCC2)N1CCOCC1
3. O=C(O)CN1CCC(n2nc(Cc3cn4cc(OCC5CC5)c(Cl)cc4n3)c3ccccc3c2=O)C1 (stereo not drawn)
4. COCCOc1cc2[nH]c(Cc3nn(CC(=O)N4CCOCC4)c(=O)c4ccccc34)nc2cc1Cl
5. N#Cc1cc2[nH]c(Cc3nn(CC(=O)N4CC[C@H](O)C4)c(=O)c4ccccc34)nc2cc1OCC(F)F
6. N#Cc1cc2[nH]c(Cc3nn(CC(=O)N4CCN(CC5CC5)CC4)c(=O)c4ccccc34)nc2cc1OCC(F)F

[A]
1: ≥ 19800 nM; 2: ≥ 19800 nM; 3: ≥ 19800 nM; 4: ≥ 19800 nM; 5: ≥ 19800 nM; 6: ≥ 19800 nM

----------
- test-target: S1PR2 (Homo sapiens, UniProt O95136)
- Construct: expressed in transfected cells
- Sequence (O95136 whole entry): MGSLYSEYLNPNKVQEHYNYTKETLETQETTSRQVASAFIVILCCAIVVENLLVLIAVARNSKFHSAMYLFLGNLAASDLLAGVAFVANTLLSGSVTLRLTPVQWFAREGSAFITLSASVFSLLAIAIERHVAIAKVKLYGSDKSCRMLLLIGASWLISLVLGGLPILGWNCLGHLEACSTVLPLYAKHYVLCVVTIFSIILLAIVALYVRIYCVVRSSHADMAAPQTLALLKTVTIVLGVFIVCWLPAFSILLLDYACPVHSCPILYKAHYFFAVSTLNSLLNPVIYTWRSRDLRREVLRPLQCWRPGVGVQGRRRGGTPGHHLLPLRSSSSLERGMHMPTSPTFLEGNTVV
- experiment-description: S1PR2 binding assay (competition with radioactively labeled S1P, SpA)
- measurement-setup: membranes from stable cell line over expressing S1PR2, SpA beads; read-out: S1P2 EC50 (nM), S1PR2 binding EC50
Could you mark each record Fulfilled if its EC50 falls strictly under 200 nM, and Not fulfilled if it equals or exceeds it?

Worked cases, answers included:
[Q] # check: EC50 < 200 nM for CN(C)[C@H]1CCN(C(=O)Cn2nc(Cn3cc4cc(OCC(F)F)c(C#N)cc4n3)c3ccccc3c2=O)C1
[A] Not fulfilled

[Q] # check: EC50 < 200 nM for O=C(O)C1(Cn2nc(Cc3nc4cc(Cl)c(OC(F)(F)F)cc4[nH]3)c3ccccc3c2=O)CC1
[A] Not fulfilled

[Q] # check: EC50 < 200 nM for CC(C)(C)NC(=O)Cn1nc(Cn2cc3cc(OCC4CC4)c(Cl)cc3n2)c2ccccc2c1=O
[A] Not fulfilled

Next:
[Q] # check: EC50 < 200 nM for N#Cc1cc2[nH]c(Cc3nn(CC4CCCN4CC(=O)O)c(=O)c4ccccc34)nc2cc1OCC(F)F (stereo not shown)
[A] Not fulfilled

[Q] # check: EC50 < 200 nM for COc1ccc2c(Cc3nc4cc(Cl)c(OCC(F)F)cc4[nH]3)nn(CC(=O)N3CCOCC3)c(=O)c2c1
[A] Fulfilled

[Q] # check: EC50 < 200 nM for CCOc1cc2cn(Cc3nn(CC(=O)O)c(=O)c4ccccc34)nc2cc1Br
[A] Fulfilled

[Q] # check: EC50 < 200 nM for N#Cc1cc2[nH]c(Cn3nc(CC(=O)N4C[C@H](O)[C@@H](O)C4)c(=O)c4ccccc43)nc2cc1OCC1CC1
[A] Fulfilled

----------
- test-target: human GPCR sphingosine 1-phosphate receptor 2 (Homo sapiens)
- Construct: host or cells: CHO
- Sequence (O95136 whole entry): as above
- experiment-description: S1PR2 antagonist Ca2+ flux assay
- Format: cell-based
- measurement-setup: antagonist mode, CHO-S1PR2 cells, S1P at EC80, Ca2+ fluorescence; read-out: S1P2 EC50 (nM), S1P2 antagonist EC50
Could you please report measured log10 EC50 for the items listed next?
Values below are the log10 of the recorded EC50, with nM as the unit.

[Q] Which log10 EC50 is listed for N#Cc1cc2nc(Cn3nc(C(=O)O)c(=O)c4ccccc43)[nH]c2cc1OCC1CC1 [Compound 110] ?
[A] 0.34

[Q] Which log10 EC50 is listed for O=C(O)c1nn(Cc2nc3cc(OCC4CC4)c(Cl)cc3[nH]2)c2ccccc2c1=O [compound 5] ?
[A] 0.54

[Q] Which log10 EC50 is listed for CC(F)(F)COc1cc2[nH]c(Cc3nn(CC(=O)N4CCOCC4)c(=O)c4ccccc34)nc2cc1Cl [Compound 172] ?
[A] 0.88

[Q] Which log10 EC50 is listed for O=C(O)Cn1nc(Cc2nc3cc(OCC(F)F)c(F)cc3[nH]2)c2ccccc2c1=O [Compound 130] ?
[A] 1.80

Need log10 EC50 for each of these molecules.
1. CC1(O)CCN(C(=O)Cn2nc(Cc3cn4cc(OCC5CC5)c(C#N)cc4n3)c3ccccc3c2=O)C1 (stereo not drawn) [Compound 210]
2. CC(C(=O)O)n1nc(Cn2cc3cc(OCC4CC4)c(Cl)cc3n2)c2cc(C#N)ccc2c1=O (stereo not drawn) [Compound 92]

[A]
[2.01, 0.95]

Need log10 EC50 for each of these molecules.
1. N#Cc1cc2nc(Cc3nn(C4CN(CC(=O)O)C4)c(=O)c4ccccc34)cn2cc1OCC1CC1 [Compound 73]
2. O=C(O)Cc1nn(Cc2nc3cc(OCC(F)F)c(Cl)cc3[nH]2)c2ccccc2c1=O [Compound 78]
3. N#Cc1cc2[nH]c(Cc3nn(CC(=O)NCC(F)F)c(=O)c4ccccc34)nc2cc1OCC(F)F [Compound 223]
4. CC(C)(C)C(=O)Cn1nc(Cc2nc3cc(Cl)c(OC(F)(F)F)cc3[nH]2)c2ccccc2c1=O [Compound 44]
5. N#Cc1cc2[nH]c(Cc3nn(CC(=O)N4CCOCC4)c(=O)c4cccc(C5CC5)c34)nc2cc1OCC(F)F [Compound 54]

[A]
1. 3.12
2. 0.79
3. 1.84
4. 3.32
5. 1.38

Need log10 EC50 for each of these molecules.
1. N#Cc1cc2nc(Cc3nn(CC(=O)N(CCO)CC(F)F)c(=O)c4ccccc34)[nH]c2cc1OCC(F)F [Compound 194]
2. CC(C(=O)NS(C)(=O)=O)c1nn(Cc2cn3cc(OCC4CC4)c(Cl)cc3n2)c2ccccc2c1=O (stereo not drawn) [compound 15]
3. O=C(O)CN1CCC(n2nc(Cc3cn4cc(OCC5CC5)c(Cl)cc4n3)c3ccccc3c2=O)C1 (stereo not drawn) [Compound 87]
4. CC1(COc2cc3nc(Cc4nn(CC(=O)NS(C)(=O)=O)c(=O)c5ccccc45)[nH]c3cc2Cl)CC1 [Compound 250]
5. N#Cc1cc2nc(Cc3nn(CC(=O)N4CCOCC4)c(=O)c4c3CCCC4)[nH]c2cc1OCC(F)(F)F [Compound 200]
6. N#Cc1cc2[nH]c(Cc3nn(C4CCN(CC(=O)O)C4)c(=O)c4ccccc34)nc2cc1OCC(F)F (stereo not drawn) [Compound 71]
7. CC(C(=O)O)n1nc(Cc2cn3cc(OCC4CC4)c(Cl)cc3n2)c2cc(F)ccc2c1=O (stereo not drawn) [Compound 86]
8. N#Cc1cc2[nH]c(Cc3nn(CC(=O)NC(C#N)C4CC4)c(=O)c4ccccc34)nc2cc1OCC(F)F (stereo not drawn) [Compound 226]

[A]
1: 1.62; 2: 0.75; 3: 2.17; 4: 0.97; 5: 0.94; 6: 2.55; 7: 0.80; 8: 1.82

Where these numbers come from: patent US20210315893A1
